TARGET: Gal(a1-3)Gal(b1-4)[Fuc(a1-3)]GlcNAc(b1-2)Man(a1-3)[Gal(a1-3)Gal(b1-4)[Fuc(a1-3)]GlcNAc(b1-2)Man(a1-6)]Man(b1-4)GlcNAc(b1-4)GlcNAc
ASSAY DETAILS: glycan array binding signal (z-score within array); higher = stronger binding
ASSAY CONDITIONS: glycan notation: IUPAC condensed, linker removed
About 410 targets per protein were measured; listed, in parts, are those with the strongest signals and a random draw of the rest.
MEASUREMENT NAME: glycan array binding signal (z-score)
Answer field: number only, no words.

## Input # get_value(readout='glycan array binding signal (z-score)', item= BC2LB (Burholderia cenocepacia), B4EH85_BURCJ (protein) MGSSHHHHHHSSGENLYFQGHMSQPFTHDDLYALLQLAGNDATAVQANGDQAVLDRMRQFMTAQLVEKLPQYDVFVDIATIPYSFDVGSWQNKVKTDAAGEVVACTVTWAGAPGVLPGAAAKFGVGAVVNYFSKATPH )
## Output 0.053

## Input What glycan array binding signal (z-score) value was documented for this binder, LF82 (Escherichia coli) (protein) ADWGPCRTASGDPFIFVTSFTKNIQNPTDNVTGQTYPDFYQWALGDKYSGVCECPSPNPTEARPTLYKTESTLAAGHNSTYFKITNNLEVSTRVYIANVGNVQVPFINKSNSQPGRECDQPTFGWTTGSKGQLSLYIAKPFVGEQNIPQTIIVSVFGTKKENVYSSVPISQVLLSGKVTVTQGCELAAGTSLDIDFGEYQAHDFKGRTGQPPQNVQKIQKELTFNCTNISDGVHIYLSLEGTPNAAYPSAISLGNADVGAVIEDGKGNILKPNDSNSLLEMNPGSLYEYVKRKVTTTITAYPVSTTGKLPAAGDYSGVATMHVELDGGGGGGGGGGATTDLGAKGTLKFSLKISQGHHHHHH ?
## Output 1.79

## Input Query: glycan array binding signal (z-score); subject: Mnn9-2N3 (Aspergillus fumigatus) (protein) MAVARRMRRTNPITLLLAAILAIGFFIFVLSPSTTSASPVKAGSASSSSTSQQRREDNAAENPLSPPTKPFFKSQPVRHDGQQAPPPVVQYNLNQLSSTSTSAANGERILILTPMARFVPEYWDNVVKLTYPHELISIGFIIPKNKEGNAALAALEAAIAKTQSGPIDKRFASISILRQDFEPPLQSQDEKERHKISNQKARRESMSRARNSLLFTTLGPATAWVLWLDADIVETPPTLIQDLTAHDHPVLVPNCYQRYYNSEKKKMDVRPYDYNSWIDSSTAQSMAAEMGPDEILLEGYAEMPTYRTLMAHLADTANPNPKKVIELDGVGGTALMVKAEVHRDGAMFPAFPFYHLVETEGFAKMAKRLGYSVYGLPDYFVSRNFFFFFFFFFFG
## Output 2.41

## Input glycan array binding signal (z-score) for CIH1 (Colletotrichum higginsianum) (protein) LPQATPTTPTPTSASAAATISATSSPTCSPGPVIDYTVVSGDTLTIISQRFSSGICNIADASGITNPNFLSLGQVLQVPTYVCTPDNTSCLAKEGSDTCVEGGPATHTIVAGDTFFLVAQSLGLDVNALLAANEGVDPLLLQIGDVINIPVC ?
## Output 0.011

## Input # input binder: PEB4 (Campylobacter jejuni), A1VYV6 (protein) MKKFSLVAAALIAGVALNVNAATVATVNGKSISDAEVSEFFAPMLRGQDFKTLPDNQKKALIQQYIMQDLILQDAKKQNLEKDPLYTKELDRAKDAILVNVYQEKILNTIKIDAAKVKAFYDQNKDKYVKPARVQAKHILVATEKEAKDIINELKGLKGKELDAKFSELAKEKSIDPGSKNQGGELGWFDQSTMVKPFTDAAFALKNGTITTTPVKTNFGYHVILKENSQAKGQIKFDEVKQGIENGLKFEEFKKVINQKGQDLLNSAKVEYK ; wanted: its glycan array binding signal (z-score)
## Output 2.12
